B1: ZER1 (parent)
chain: PILRLLPQGISPVSQHWATWALYN

Variants of: B1
Experiment: protein stability index of a GFP-peptide fusion (GPS, HEK-293T) (PSI 1-6); higher = more stable;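 also: lentivirally expressed fusions sorted by FACS into six bins by GFP to DsRed ratio, PSI derived from sequencing read proportions per bin multiplied by bin number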
Details: c terminus: a fixed tail appended
Note that class boundaries on protein stability index are zone 1 = under 2, zone 2 = from 2 up to 3, zone 3 = 3 and over

| biosequence | category |
| --- | --- |
| PILRLLDQGISPVSQHWATWALYN | zone 2 |
| PILRLLEQGISPVSQHWATWALYN | zone 3 |
| PILRLLPQGISPVSQHWATWPLYN | zone 2 |
| PNLRLLPQGISPVSQHWATWALYN | zone 1 |
| PILRLLPQGISPVSQHWATGALYN | zone 1 |
| PILRLLPQGISPVSQHWATWQLYN | zone 3 |
| PILRLLPQGIIPVSQHWATWALYN | zone 2 |
| PILRLLPQTISPVSQHWATWALYN | zone 2 |
| PILRLLPQGISPVSQHWATWTLYN | zone 2 |
| PILRLLPQGNSPVSQHWATWALYN | zone 2 |
| PILRLLPQGISPVSQHWITWALYN | zone 1 |
| PILRLLPQGISPVSQHWATWALSN | zone 1 |
| FILRLLPQGISPVSQHWATWALYN | zone 3 |
| PILRLLPQGISPASQHWATWALYN | zone 3 |
| PILRLLPQGISPVSQHGATWALYN | zone 1 |
| PILRLLPQGISPVSQHWATWNLYN | zone 1 |
| PILRLLPQGISPVSQHWATTALYN | zone 3 |
| PILRLLPQGISPVSQHWATWILYN | zone 3 |
| PILRLLPQGISPVSQHWATYALYN | zone 2 |
| PILRLLFQGISPVSQHWATWALYN | zone 2 |
| PIVRLLPQGISPVSQHWATWALYN | zone 1 |
| PILRLLPQGISPFSQHWATWALYN | zone 1 |
| PILRLLPQGISPVSQHWATWASYN | zone 1 |
| PILRLLPQGISYVSQHWATWALYN | zone 3 |
| PILRLLPQGISPLSQHWATWALYN | zone 2 |
| PILRLLPQGISPVSQHKATWALYN | zone 2 |
| PILRLLPQGISPGSQHWATWALYN | zone 1 |
| PILRLLPQGISPVSQHWATAALYN | zone 2 |
| PRLRLLPQGISPVSQHWATWALYN | zone 3 |
| PILRLLPQGISPVSLHWATWALYN | zone 1 |
| PILRLLPQGIDPVSQHWATWALYN | zone 3 |
| PILRLLPQGISPVSQHWATWALGN | zone 2 |
| PILRLEPQGISPVSQHWATWALYN | zone 2 |
| PINRLLPQGISPVSQHWATWALYN | zone 2 |
| PILRLRPQGISPVSQHWATWALYN | zone 3 |
| PILRLLPQGILPVSQHWATWALYN | zone 2 |
| PILRLLPQGISPVSQHTATWALYN | zone 1 |
| PILRLLPQGISIVSQHWATWALYN | zone 3 |
| PIYRLLPQGISPVSQHWATWALYN | zone 1 |
| PALRLLPQGISPVSQHWATWALYN | zone 2 |
| PILRLLPQGISPSSQHWATWALYN | zone 2 |
| PILRLLPQGICPVSQHWATWALYN | zone 3 |
| PILRLLPQGISPVSQHWCTWALYN | zone 1 |
| PILRLLPQGIGPVSQHWATWALYN | zone 2 |
| PILRLLPQGISPVYQHWATWALYN | zone 2 |
| PILRLLPQGISPVSQHWATWAGYN | zone 2 |
| PILRLLRQGISPVSQHWATWALYN | zone 1 |
| PILQLLPQGISPVSQHWATWALYN | zone 1 |
| PILRLLPQGISPVSQHWATWKLYN | zone 2 |
| PILRLLPQGISPVSQHWATKALYN | zone 1 |
| PILRLLPQGISPVSQHWATWAQYN | zone 3 |
| PILRLLPQGISPVSQHWATWALYQ | zone 2 |
| PILRLLPQGISPVSQHWATWALYI | zone 3 |
| PILRLLPQGISPVSQHWATQALYN | zone 1 |
| PILRLLPQGISPVSQHWATWALEN | zone 1 |
| PILRLLPQGISPVSQHQATWALYN | zone 3 |
| PILRLLPQGISPVSQHWATWAYYN | zone 2 |
| PILRLLPQGISPVSQHWATWALVN | zone 3 |
| PILRLLPQGISPVSQHWATDALYN | zone 2 |
| PILRLLPQGISPVSQHWATCALYN | zone 3 |
| PILRLLPQGISPVSFHWATWALYN | zone 2 |
| PILRLLPQGISPVSQHWRTWALYN | zone 2 |
| PILRLLPQGISPVSQHWATWALYA | zone 2 |
| PILRLLPQGISPVSQHWATWALYL | zone 3 |
| PILRLLPQGISPVSQHWATWLLYN | zone 2 |
| PILRLLPQGISPVSQHWATWRLYN | zone 1 |
| PHLRLLPQGISPVSQHWATWALYN | zone 1 |
| PILILLPQGISPVSQHWATWALYN | zone 3 |
| PILRLLPQGISPVSQIWATWALYN | zone 3 |
| PILRMLPQGISPVSQHWATWALYN | zone 3 |
| PILLLLPQGISPVSQHWATWALYN | zone 1 |
| PILRLLPQGISPVSQHMATWALYN | zone 3 |
| HILRLLPQGISPVSQHWATWALYN | zone 2 |
